# System: c-MET
# RUN_DESCRIPTION: c-MET protein degradation (Simple Western), EBC-1 cells
# Type: cell-based, human
# ASSAY_SETUP: EBC-1 lung cancer cells, c-MET overexpressing; 48 hours
# Description: In order to assess the resolution of the compound of the present invention for c-MET expressed in cells, cells were dispensed in a 12-well plate at a concentration of 2×10^5 cells/well, and then gastric cancer cell lines were treated with samples for 24 hours and lung cancer cell lines were treated for 48 hours. […] Protein expression was then measured using the Simple Western Automated Western Blot System Abby instrument using 3 μg of protein for each sample. […]
Reported DC50 values follow for various compounds

| COMPOUND | SYSTEM_NAME | RESULT |
| --- | --- | --- |
| N#Cc1cccc(-c2ccc(=O)n(Cc3cccc(-c4ncc(-c5cccc(CN6CCN(c7ccc(C8CCC(=O)NC8=O)cn7)CC6)c5)cn4)c3)n2)c1 (stereo not drawn) | c-MET | < 100 nM |

Any idea what DC50 was measured for Cc1nn(C2CCC(=O)NC2=O)c(=O)c2cc(N3CCN(CCC(=O)N4CCC(COc5cnc(-c6cccc(Cn7nc(-c8cccc(C#N)c8)ccc7=O)c6)nc5)CC4)CC3)ccc12 (stereo not drawn) ?
< 100 nM

Any idea what DC50 was measured for N#Cc1cccc(-c2ccc(=O)n(Cc3cccc(-c4ncc(OCC5CCN(CCN6CCN(c7ccc(NC8CCC(=O)NC8=O)cc7F)CC6)CC5)cn4)c3)n2)c1 (stereo not drawn) ?
< 100 nM

Values compiled from patent US20260306639A1.
